Several reports have described pKi for Carbonic anhydrase 1 (Homo sapiens, UniProt P00915); a selection of those results is presented here.
pKi: −log10 of the molar value.
Each entry gets criterion not met if its pKi stays under 7, and criterion met if its pKi is 7 or above.

Reference set (3 entries):
O=C1N=C(Nc2ccc(S(=O)(=O)Nc3ncccn3)cc2)S/C1=C/c1coc2ccccc2c1=O : criterion not met
Nc1ccc(S(N)(=O)=O)nc1 : criterion not met
CC(=O)OC[C@H]1O[C@@H](NC(=S)NCc2ccc(S(N)(=O)=O)cc2)[C@H](OC(C)=O)[C@@H](OC(C)=O)[C@@H]1O[C@H]1O[C@H](COC(C)=O)[C@@H](OC(C)=O)[C@H](OC(C)=O)[C@H]1OC(C)=O : criterion not met

Confirm if pKi reported for the molecule CCCN(CCC)S(=O)(=O)c1ccc(C(=O)Nc2ccccc2Cl)cc1 is 7 or above. criterion not met

Is reported pKi greater than or equal to 7 here: CNC(=O)COC(=O)[C@H](Cc1ccccc1)NC(=S)Nc1ccc(S(N)(=O)=O)cc1 criterion met

Exam item: decide whether the reported pKi for NS(=O)(=O)c1nnc(NC(=O)CCNC(=O)CN(CC(=O)O)CC(=O)O)s1 is at least 7. criterion not met

Textbook exercise: given the entry CCN(CC)CCNC(=O)c1ccc(S(=O)(=O)/N=c2/sc(S(N)(=O)=O)nn2C)cc1 , state whether its pKi is greater than or equal to 7. criterion met

Decide: is the reported value of pKi for NS(=O)(=O)c1ccc(-c2ccc(-c3ccc(Br)cc3)cc2)cc1 equal to or greater than 7? criterion not met

Exam item: decide whether the reported pKi for CC(C)(C)C(=O)Nc1nnc(S(N)(=O)=O)s1 is at least 7. criterion not met

====

// cross-study collection: Ki for Carbonic anhydrase 1 (Homo sapiens, UniProt P00915)
I only need the number, in nM, no unit after it.

Below, each entry is followed by its recorded Ki result.
NS(=O)(=O)c1ccc(-c2ccccc2)cc1 : 41.5
C[C@H](CCC(=O)Nc1nnc(S(N)(=O)=O)s1)[C@H]1CC[C@H]2[C@@H]3[C@H](O)C[C@@H]4C[C@H](O)CC[C@]4(C)[C@H]3C[C@H](O)[C@]12C : 420
NS(=O)(=O)c1ccc(-c2ccc(Cc3ccc(C(=O)O)cc3)cc2)cc1 : 236
CCCC(CCC)C(=O)NCCc1ccc(S(N)(=O)=O)cc1 : 3500

Note: attention shifts to another entry.
API: value(readout= Ki, system= Carbonic anhydrase 1 (Homo sapiens, UniProt P00915), query= CN(C)CCOC(=O)c1cccc(S(=O)(=O)/N=c2/sc(S(N)(=O)=O)nn2C)c1 ) 16

====

// molecules with reported Ki on Carbonic anhydrase 1 (Homo sapiens, UniProt P00915), multi-publication
Answer format: numeric, nM implied, no suffix.

What reported Ki corresponds to CNc1nc(NC)nc(NCc2ccc(S(N)(=O)=O)cc2)n1 on Carbonic anhydrase 1 (Homo sapiens, UniProt P00915)? 90

Give the reported Ki for CCCCCCN(CCCCCC)CCC(=O)N(CCc1ccccc1)CCc1ccc(S(N)(=O)=O)cc1 (system: Carbonic anhydrase 1 (Homo sapiens, UniProt P00915)). 518

Write down the reported Ki of NS(=O)(=O)c1cc(C(=O)N[C@@H](CO)C(=O)O)ccc1Cl , test system: Carbonic anhydrase 1 (Homo sapiens, UniProt P00915). 170

Which Ki is reported with Carbonic anhydrase 1 (Homo sapiens, UniProt P00915) for this entry: CN(C)S(=O)(=O)NO ? 12000
